Here the recorded emission maximum is given for each entry.
experiment: solvent given as SMILES; conditions: in ClCCl
Give your result in nm as a bare value.

>  <ITEM_SMILES>
O=Cc1ccc(-c2ccc(O)c(-c3nc4ccccc4s3)c2)s1

>  <emission maximum, nm>
553

$$$$
>  <ITEM_SMILES>
CCOC(=O)c1c(-c2cc3ccc(OCC=C(C)C)cc3oc2=O)nn(-c2cccc(Cl)c2)c1C(=O)OCC

>  <emission maximum, nm>
426

$$$$
>  <ITEM_SMILES>
Cc1cc(C)c(B2c3cc(C)ccc3N3c4ccc(C)cc4B(c4c(C)cc(C)cc4C)c4cc(C)cc2c43)c(C)c1

>  <emission maximum, nm>
484

$$$$

Return value of emission maximum for input `CCCCCCCCCCCCN1C(=O)c2c(c3ccc4cc(-c5ccc(OC)cc5)c(OC)cc4c3c3c2ccc2cc(-c4ccc(OC)cc4)c(OC)cc23)C1=O` , no commentary.
532

----------
test: solvent given as SMILES; settings: in ClC(Cl)Cl
// bucketize emission maximum: b0: < 400 nm; b1: ≥ 400 nm and < 600 nm; b2: ≥ 600 nm

Past entries and their recorded results:
>  <MOLECULE>
C[Si](C)(C)C#C[Si](c1c2ccccc2cc2ccccc12)(c1c2ccccc2cc2ccccc12)c1c2ccccc2cc2ccccc12

>  <CATEGORY_LABEL>
b1

$$$$
>  <MOLECULE>
N#Cc1ccc(C#Cc2ccccc2C#N)cc1

>  <CATEGORY_LABEL>
b0

$$$$
>  <MOLECULE>
CCCCN1c2ccc(/C=C/c3cc(=O)oc4cc(C)ccc34)cc2Sc2cc(/C=C/c3cc(=O)oc4cc(C)ccc34)ccc21

>  <CATEGORY_LABEL>
b2

$$$$
>  <MOLECULE>
Cc1ccc2nc3c4c(c5ccccc5c3nc2c1)OC(=O)CC4c1ccc(F)cc1 (stereo not drawn)

>  <CATEGORY_LABEL>
b1

$$$$
>  <MOLECULE>
CN(C)c1ccc(-c2cc3ccc([N+](=O)[O-])cc3c(=O)o2)cc1

>  <CATEGORY_LABEL>
b2

$$$$
>  <MOLECULE>
CCC1(CC)c2ccccc2-c2c1c1c(c3c2C(CC)(CC)c2cc(B(c4c(C)cc(C)cc4C)c4c(C)cc(C)cc4C)ccc2-3)C(CC)(CC)c2cc(B(c3c(C)cc(C)cc3C)c3c(C)cc(C)cc3C)ccc2-1

>  <CATEGORY_LABEL>
b0

$$$$

Categorize the following entry: `CC[n+]1c(C=C2C(=O)C(C=C3N(C)c4ccc(Cl)cc4C3(C)C)=C2[O-])sc2ccccc21`
b2

Categorize the following entry: `CN(C)c1ccc(C2=Cc3cc(Cl)nc[n+]3[B-](F)(F)O2)cc1`
b1

Categorize the following entry: `CC1(C)CC(/C=C/c2cn(-c3ccccc3)nc2-c2ccccc2)=CC(=C(C#N)C#N)C1`
b1

Categorize the following entry: `CC1=[N+]2C(=C(c3ccc(N4CCCCC4)cc3)c3ccc(C)n3[B-]2(F)F)C=C1`
b1

Categorize the following entry: `O=c1oc2ccccc2cc1-c1cccc(-c2cc3ccccc3oc2=O)c1`
b1

Categorize the following entry: `CN(C)c1ccc(C2=Cc3c4ccccc4c4ccccc4[n+]3[B-](F)(F)O2)cc1`
b1

Categorize the following entry: `CC[Si](CC)(CC)c1cc2ccc3cccc4ccc(c1C(=O)NC(C)(C)C)c2c34`
b0

Categorize the following entry: `Cc1nc2c(ccc3c2sc(/C=C/c2cc4c5c(c2)CCCN5CCC4)[n+]3C)s1`
b2

Categorize the following entry: `c1ccc2c(c1)-c1ccccc1C21c2cc(-c3ccc4ccc5cccc6ccc3c4c56)ccc2-c2ccc(-c3ccc4ccc5cccc6ccc3c4c56)cc21`
b1

Values compiled from the Deep4Chem optical property database.
